Target: SMARCA2 (Homo sapiens)
Construct: endogenous in cells; host or cells: HT1080 (CRISPR HiBiT knock-in clone, generated in house)
Assay: SMARCA2 HiBiT degradation assay (cellular)
Assay type: cell-based
Settings: 6 h incubation; HiBiT-tagged SMARCA2, luminescence read-out; table head names A549; read-out: HiBit A549 SMARCA2 IP (nM) 6 h
Rule: DC50 below 100 nM gives condition met, anything at or above gives condition not met.

For orientation, consider the following solved cases.
COMPOUND	TARGET_OR_SYSTEM	ASSIGNED_CATEGORY
Nc1nnc(-c2ccccc2O)cc1N1CCC(C(=O)N2CC3(CCN(C(=O)COc4ccc5c(c4)C(=O)N(C4CCC(=O)NC4=O)C5=O)C3)C2)(c2ccccc2)CC1 (stereo not shown) [Example 189]	SMARCA2 (Homo sapiens)	condition not met
Nc1nnc(-c2ccccc2O)cc1N1CC2CCC(C1)N2c1cccc(OCCN2CCN(C(=O)CCC(=O)N3CCC(Oc4ccc5c(c4)C(=O)N(C4CCC(=O)NC4=O)C5=O)CC3)CC2)c1 (racemic) [Example 10]	SMARCA2 (Homo sapiens)	condition met
CC(Nc1cccc2c1C(=O)N(C1CCC(=O)NC1=O)C2=O)c1cn(CCCCCCCCCN2CCN(c3ccc(N4CCC[C@H](Oc5cc(-c6ccccc6O)nnc5N)C4)cc3)CC2)nn1 (mixture of isomers) [Example 201]	SMARCA2 (Homo sapiens)	condition met
Nc1nnc(-c2cc(F)ccc2O)cc1N1C2CCC1CN(c1cccc(OCCN3CCN(C(=O)C4CCN(c5ccc6c(c5)C(=O)N(C5CCC(=O)NC5=O)C6=O)CC4)CC3)c1)C2 (stereo not shown) [Example 160]	SMARCA2 (Homo sapiens)	condition not met
Nc1nnc(-c2ccccc2O)cc1N1CC2CCC(C1)N2c1cccc(OCCN2CCN(C(=O)N3CCC(c4ccc(OC5CCC(=O)NC5=O)cc4)CC3)CC2)c1 (racemic) [Example 50]	SMARCA2 (Homo sapiens)	condition met

I'd appreciate it if you could check whether Nc1nnc(-c2ccccc2O)cc1N1CC(Oc2cccc(C(=O)N3CCN(C(=O)CCCCCCCCCNc4cccc5c4C(=O)N(C4CCC(=O)NC4=O)C5=O)CC3)c2)C1 (stereo not shown) [Example 146] has DC50 smaller than 100 nM.
condition not met

Given CCC(Nc1cccc2c1C(=O)N(C1CCC(=O)NC1=O)C2=O)c1cn(CCCCCCCCCN2CCN(c3ccc(N4CCC[C@H](Oc5cc(-c6ccccc6O)nnc5N)C4)cc3)CC2)nn1 (mixture of isomers) [Example 203] , is recorded DC50 strictly lower than 100 nM?
condition not met

Please state whether DC50 is below 100 nM for Nc1nnc(-c2ccccc2O)cc1N1CCC(C(=O)NCC2CCN(CC3CCN(c4ccc5c(c4)C(=O)N(C4CCC(=O)NC4=O)C5=O)CC3)CC2)(c2ccccc2)CC1 (stereo not shown) [Example 100]
condition not met

Input Nc1nnc(-c2ccccc2O)cc1N1CC2CCC(C1)N2c1ccc(C(F)(F)F)c(C(=O)N2CCN(C(=O)C3CCN(c4ccc5c(c4)C(=O)N(C4CCC(=O)NC4=O)C5=O)CC3)CC2)c1 (racemic) [Example 107] ; condition: DC50 strictly below 100 nM. Does it hold?
condition not met

###

Target: SMARCA2 (Homo sapiens, UniProt P51531)
Construct: endogenous in cells; host or cells: HT1080 (CRISPR HiBiT knock-in clone, generated in house)
Sequence (P51531 whole entry): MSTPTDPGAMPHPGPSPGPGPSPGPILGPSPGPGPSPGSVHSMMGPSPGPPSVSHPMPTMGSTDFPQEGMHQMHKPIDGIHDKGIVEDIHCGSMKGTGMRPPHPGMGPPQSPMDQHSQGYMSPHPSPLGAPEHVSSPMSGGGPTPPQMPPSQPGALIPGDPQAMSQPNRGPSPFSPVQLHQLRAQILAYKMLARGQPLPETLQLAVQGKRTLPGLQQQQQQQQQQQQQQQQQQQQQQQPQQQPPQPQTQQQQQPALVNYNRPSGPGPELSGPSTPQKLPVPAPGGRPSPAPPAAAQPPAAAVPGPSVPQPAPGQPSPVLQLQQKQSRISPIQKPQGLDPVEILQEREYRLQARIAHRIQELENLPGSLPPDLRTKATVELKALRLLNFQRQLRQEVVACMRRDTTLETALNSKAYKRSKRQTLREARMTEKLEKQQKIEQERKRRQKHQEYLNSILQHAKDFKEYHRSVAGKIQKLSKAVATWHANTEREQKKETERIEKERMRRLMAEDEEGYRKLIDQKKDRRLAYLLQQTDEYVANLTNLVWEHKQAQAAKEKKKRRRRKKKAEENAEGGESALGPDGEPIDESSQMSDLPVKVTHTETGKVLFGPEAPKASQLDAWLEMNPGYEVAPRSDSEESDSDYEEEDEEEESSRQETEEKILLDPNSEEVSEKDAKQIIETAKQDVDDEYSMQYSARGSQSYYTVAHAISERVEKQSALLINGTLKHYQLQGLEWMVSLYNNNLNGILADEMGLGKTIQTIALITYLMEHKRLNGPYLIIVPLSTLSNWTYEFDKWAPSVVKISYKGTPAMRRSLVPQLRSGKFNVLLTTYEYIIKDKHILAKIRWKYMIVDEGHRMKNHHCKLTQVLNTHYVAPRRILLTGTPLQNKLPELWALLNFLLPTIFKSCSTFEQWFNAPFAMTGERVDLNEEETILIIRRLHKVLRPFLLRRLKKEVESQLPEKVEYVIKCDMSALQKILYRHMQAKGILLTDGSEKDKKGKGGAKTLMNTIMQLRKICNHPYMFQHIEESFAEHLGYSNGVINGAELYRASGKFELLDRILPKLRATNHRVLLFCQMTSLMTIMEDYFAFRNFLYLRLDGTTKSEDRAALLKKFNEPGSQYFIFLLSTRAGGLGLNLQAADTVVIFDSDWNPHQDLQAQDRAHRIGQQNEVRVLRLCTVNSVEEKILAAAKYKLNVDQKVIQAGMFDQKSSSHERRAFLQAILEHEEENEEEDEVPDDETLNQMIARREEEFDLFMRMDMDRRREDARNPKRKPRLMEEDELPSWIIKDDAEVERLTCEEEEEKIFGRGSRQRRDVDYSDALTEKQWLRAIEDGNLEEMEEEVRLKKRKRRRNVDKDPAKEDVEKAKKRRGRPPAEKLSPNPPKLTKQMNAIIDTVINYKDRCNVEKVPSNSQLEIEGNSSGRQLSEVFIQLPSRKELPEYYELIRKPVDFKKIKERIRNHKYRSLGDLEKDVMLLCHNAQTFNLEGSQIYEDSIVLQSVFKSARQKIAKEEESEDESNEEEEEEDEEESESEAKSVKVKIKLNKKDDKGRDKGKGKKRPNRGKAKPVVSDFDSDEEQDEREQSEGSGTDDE
Assay: SMARCA2 HiBiT degradation assay (cellular)
Type: cell-based
Conditions: A549, 6 h incubation; Emax = amount of residual protein remaining in the cell following compound treatment; table head names A549
Output 1 (yes) for records whose Emax is lower than 40%, 0 (no) for records at or above 40%.

Consider the compound Nc1nnc(-c2ccccc2O)cc1N1CC2CCC(C1)N2c1cccc(CN2CCC(C(=O)N3CCN(c4ccc(OC5CCC(=O)NC5=O)cc4)CC3)CC2)c1 (racemic) [Example 94] . Is its Emax strictly less than 40%?
0 (no)

Could you please tell me whether Emax recorded for Nc1nnc(-c2ccccc2O)cc1N1CC2CCC(C1)N2c1cccc(CN2CCC(C(=O)N3CCN(c4ccc5c(c4)C(=O)N(C4CCC(=O)NC4=O)C5=O)CC3)CC2)c1 (racemic) [Example 95] is less than 40%?
1 (yes)

# TODO verify Emax < 40% strictly for this compound: Nc1nnc(-c2ccccc2O)cc1N1CC2CCC(C1)N2c1cccc(OCCN2CCN(C(=O)N3CCC4(CC3)CCN(c3ccc5c(c3)C(=O)N(C3CCC(=O)NC3=O)C5=O)CC4)CC2)c1 (racemic) [Example 52]
0 (no)

Below 40% on Emax? Entry Nc1nnc(-c2ccccc2O)cc1N1CC2CCC(C1)N2c1cccc(OCCN2CCN(C(=O)N3CCC(c4ccc(OC5CCC(=O)NC5=O)cc4)CC3)CC2)c1 (racemic) [Example 50]
0 (no)

Problem: For the compound Nc1nnc(-c2ccccc2O)cc1OC1CCCN(c2ccc(N3CCN(C(=O)CCCCCCCC(=O)N4CC[C@H](Nc5cccc6c5C(=O)N(C5CCC(=O)NC5=O)C6=O)C4)CC3)cc2)C1 (mixture of isomers) [Example 45] , is Emax under 40%?
0 (no)

Given the entry Nc1nnc(-c2ccccc2O)cc1N1CCC(C(=O)N2CCC3(CC2)CN(C(=O)CC2CCN(c4ccc5c(c4)C(=O)N(C4CCC(=O)NC4=O)C5=O)CC2)CCO3)(c2ccccc2)CC1 (stereo not shown) [Example 168] , would its reported Emax be below 40%?
0 (no)

Determine if Nc1nnc(-c2ccccc2O)cc1N1CC(Oc2ccc(C(=O)N3CCN(C(=O)C4CCN(c5ccc6c(c5)C(=O)N(C5CCC(=O)NC5=O)C6=O)CC4)CC3)c(Cl)c2)C1 (racemic) [Example 125] shows Emax strictly lower than 40%.
0 (no)

is_below(Emax, 40%) for Nc1nnc(-c2ccccc2O)cc1N1CC2CCC(C1)N2c1cccc(CN2CCN(CCCOC3CCN(c4ccc5c(c4)C(=O)N(C4CCC(=O)NC4=O)C5=O)CC3)CC2)c1 (racemic) [Example 56] ?
1 (yes)

Criterion: Emax strictly below 40%. Is it met by Nc1nnc(-c2ccccc2O)cc1N1CC2CCC(C1)N2c1cccc(OCCN2CCN(C(=O)N3CCC(Oc4cccc5c4C(=O)N(C4CCC(=O)NC4=O)C5=O)CC3)CC2)c1 (racemic) [Example 41] ?
0 (no)

Determine whether this compound shows Emax lower than 40% (ties excluded): Nc1nnc(-c2ccccc2O)cc1N1CC(Oc2cccc(N3CCN(C(=O)CCCCCCCCCNc4cccc5c4C(=O)N(C4CCC(=O)NC4=O)C5=O)CC3)c2)C1 (stereo not shown) [Example 39]
0 (no)
